Hello, the source for this data is patent US11071300B2, in case you need it.

mortality at 200 ppm values by entry
- Tested on: Thrips tabaci
- assay protocol: Thrips tabaci (onion thrips) leaf disc test
- Assay type: in vivo
- particulars: foliar, 144 h, application rate 200 ppm, sunflower leaf discs sprayed, mixed ages, 6 days after infestation, read-out: control (mortality)
property name: mortality at 200 ppm

Cn1nc(OS(=O)(=O)C(F)(F)C(F)(F)F)c(C(F)(F)F)c1-n1cc(-c2ccc(Cl)c(C(=O)NC3CC3)c2)cn1 = ≥ 80%
CN(C(=O)c1cc(-c2cnn(-c3c(C(F)(F)F)c(OS(=O)(=O)C(F)(F)C(F)(F)Cl)nn3C)c2)ccc1Cl)C1(C#N)CC1 = ≥ 80%
CN(C(=O)c1cc(-c2cnn(-c3c(C(F)(F)F)c(OS(=O)(=O)C(F)(F)C(F)(F)Cl)nn3C)c2)ccc1Cl)C1CC1 = ≥ 80%
CN(C(=O)c1cc(-c2cnn(-c3c(C(F)(F)F)c(OS(=O)(=O)C(F)(C(F)(F)F)C(F)(F)F)nn3C)c2)ccc1Cl)C1CC1 = ≥ 80%
COCC(=O)N(C(=O)c1cc(-c2cnn(-c3c(C(F)(F)F)c(OS(=O)(=O)C(F)(C(F)(F)F)C(F)(F)F)nn3C)c2)ccc1Cl)C1(C#N)CC1 = ≥ 80%
CC(=O)N(C(=O)c1cc(-c2cnn(-c3c(C(F)(F)F)c(OS(=O)(=O)C(F)(C(F)(F)F)C(F)(F)F)nn3C)c2)ccc1Cl)C1(C#N)CC1 = ≥ 80%
